experiment: chemical genetic growth profiling, strain panel (AID 1159580);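 note: tested at 20 µM; growth read once vehicle control cultures reached saturation at 30 °C; 1 = growth at the plate median or of vehicle wells; lower values mean less growth of the strain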; conditions: S. cerevisiae deletion strains, growth OD, locus YGL086W, strain mad1, hits give low values
Screen size: about 5,500 compounds; about 2,000 (36%) were called active. Another 18% or so got no clear call; they are omitted. The list shows a part of the results.
Measure: normalized growth
Just the number, please, no unit attached.

{"columns": ["Molecule", "normalized growth"],
 "data": [
  ["COc1c(O)cc2c(-c3ccccc3)cc(=O)oc2c1OC", 0.996],
  ["COc1ccc(-c2cc(=O)c3c(OC(C)=O)cc(OC(C)=O)cc3o2)cc1", 0.976],
  ["CCN(CCCCOC(=O)c1ccc(OC)c(OC)c1)C(C)Cc1ccc(OC)cc1 (stereo not drawn)", 0.965],
  ["COc1ccc(-c2coc3cc(O)cc(O)c3c2=O)cc1", 0.258]
]}

Which normalized growth reading was recorded for the molecule O=c1c2ccccc2[se]n1-c1ccccc1 ? 0.062

Which normalized growth reading was recorded for the molecule C[N+]1(CCCCC[N+]2(C)CCCC2)CCCC1 ? 0.996

Which normalized growth reading was recorded for the molecule COc1c(O)cccc1O ? 1.03

Which normalized growth reading was recorded for the molecule O=c1c(-c2ccc(O)cc2)coc2cc(O)cc(O)c12 ? 1.01

Which normalized growth reading was recorded for the molecule O=c1c(-c2cc(O)c(O)c(O)c2)coc2cc(O)c(O)c(O)c12 ? 0.923

Which normalized growth reading was recorded for the molecule CCCN1C[C@H](CSC)C[C@@H]2c3cccc4[nH]cc(c34)C[C@H]21 ? 1.02

Which normalized growth reading was recorded for the molecule CCC1C2CC3C4N(C)c5ccccc5C45CC(C2C5OC(C)=O)N3C1OC(C)=O (stereo not drawn) ? 0.997
